The reported measurements were obtained from patent US20250049896A1.

- TEST SYSTEM: T1, Hmm-hTFRC (REGN2431), monomeric human transferrin receptor ectodomain with N-terminal hexahistidine-myc-myc … (human, UniProt P02786 89-760)
- T1 construct: also called hmm.hTfR(C89-F763); His-myc-myc-hTFRC ecto
- T1 sequence (P02786 other isoform, or with tags, fused parts or gaps): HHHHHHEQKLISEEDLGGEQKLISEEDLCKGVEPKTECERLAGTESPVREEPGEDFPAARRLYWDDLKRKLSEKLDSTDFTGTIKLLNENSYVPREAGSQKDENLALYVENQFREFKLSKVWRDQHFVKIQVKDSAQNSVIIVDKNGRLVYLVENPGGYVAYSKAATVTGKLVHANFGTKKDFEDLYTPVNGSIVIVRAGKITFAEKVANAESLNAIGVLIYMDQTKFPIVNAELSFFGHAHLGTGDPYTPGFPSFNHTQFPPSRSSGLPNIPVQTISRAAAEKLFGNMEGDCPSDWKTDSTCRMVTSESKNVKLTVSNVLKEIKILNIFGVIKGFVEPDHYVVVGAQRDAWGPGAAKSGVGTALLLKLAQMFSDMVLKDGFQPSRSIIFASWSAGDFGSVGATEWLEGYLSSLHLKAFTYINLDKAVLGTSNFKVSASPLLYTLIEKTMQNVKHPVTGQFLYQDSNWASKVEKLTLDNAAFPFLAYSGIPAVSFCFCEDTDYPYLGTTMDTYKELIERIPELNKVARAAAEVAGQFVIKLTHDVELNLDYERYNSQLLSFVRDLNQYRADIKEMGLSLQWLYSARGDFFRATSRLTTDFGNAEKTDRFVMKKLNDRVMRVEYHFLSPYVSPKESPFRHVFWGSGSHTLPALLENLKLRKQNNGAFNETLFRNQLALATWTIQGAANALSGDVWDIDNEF
- MEASUREMENT PROTOCOL: blocking ELISA, supernatant; Hmm-hTFRC binding to immobilized human holo-Tf
List of % Blocking values.
Express it in %; write the number only.

BINDER: 69263 scFv (VK-VH) (scFv, CHO supernatant; Vk-3xG4S-Vh) scFv: DIQMTQSPSSLSASVGDRVTITCRASQDISHYSAWYQQKPGKLPNLLIYAASTLQSGVPSRFSGSGSGTDFSLTTSSLQPEDVATYYCQKYNSVPLTFGGGTKVEIKGGGGSGGGGSGGGGSEVQLVESGGGLVQPGRSLRLSCAVSGFTFDDYAMHWVRQAPGKGLEWVSGISWNSGTRGYADSVKGRFTISRDNAKNSLYLQMNSLRGEDTALYYCVKDITISPNYYGMDVWGQGTTVTVSS
% Blocking [%]: 4

BINDER: 69332 scFv (VK-VH) (scFv, CHO supernatant; Vk-3xG4S-Vh) scFv: AIQMTQSPSSLSASVGDRVTITCRASQGIRNDLGWYQQKPGKAPKLLIYAASTLQSGVPSRFSGSGSGTDFTLTISSLQPEDFATYYCLQDYNYPFTFGPGTKVDIKGGGGSGGGGSGGGGSQVTLRESGPALVKPSQTLTLTCTFSGFSLNTYGMFVSWIRQPPGKALEWLAHIHWDDDKYYSTSLKTRLTISKDTSKNQVVLTMTNMDPVDTATYYCARGHNNLNYIIHWGQGTLVTVSS
% Blocking [%]: 22

Form: binder = 12799B Fab (Fab, V domains shown, CHO supernatant) VH: QITLKESGPTLVKPTQTLTLTCTFSGFSLSTSGVGVVWIRQPPGKALEWLALIYWNDHKRYSPSLGSRLTITKDTSKNQVVLTMTNMDPVDTATYYCAHYSGSYSYYYYGLDVWGQGTTVTVSS VL: DIQMTQSPSSVSASVGDRVTITCRASQGIASWLAWYQQKPGKAPELLIYAASSLQGGVPSRFSGSGSGTDFTLTISSLQPEDFAIYYCQQANYFPWTFGQGTKVEIKR ; % Blocking = 5

Form: binder = 69326 scFv (VH-VK) (scFv) EVQLVESGGGLVQPGGSLRLSCAVSGFIFSSYEMNWVRQAPGKGLEWVSYISSSGSTIFYADSVKGRFTISRDNAKNSLYLQMNSLRAEDTAVYYCVSGVVLFDVWGQGTMVTVSSEIVMTQSPATLSVSPGERATLSCRASQSVSSNFAWYQQKPGQAPRLLIYSASSRATGIPVRFSGSGSGTEFTLTISSLQSEDFAVYYCQQYNIWPRTFGQGTKVEIK ; % Blocking = 18

Form: binder = 12799B scFv (VK-VH) (scFv, CHO supernatant; Vk-3xG4S-Vh) scFv: DIQMTQSPSSVSASVGDRVTITCRASQGIASWLAWYQQKPGKAPELLIYAASSLQGGVPSRFSGSGSGTDFTLTISSLQPEDFAIYYCQQANYFPWTFGQGTKVEIKGGGGSGGGGSGGGGSQITLKESGPTLVKPTQTLTLTCTFSGFSLSTSGVGVVWIRQPPGKALEWLALIYWNDHKRYSPSLGSRLTITKDTSKNQVVLTMTNMDPVDTATYYCAHYSGSYSYYYYGLDVWGQGTTVTVSS ; % Blocking = 10
